Dear all, this message contains IC50 results, target or system Phosphatidylinositol 4-kinase alpha (Homo sapiens, UniProt P42356).
Attribute Measured: IC50 (nM)

I. COc1ncc(-c2ccc3nc(N)c(-c4ccccc4)cc3c2)cc1NS(=O)(=O)c1ccc(F)cc1F
II. COc1ncc(-c2ccc3ncnc(N4CCOCC4)c3c2)cc1NS(=O)(=O)c1ccc(F)cc1F
Query :: So which one has the bigger IC50 here, I or II ? Label of pick, please.
Result :: I

====

# Test system: Hepatitis C virus
# Test Description: Antiviral activity against Hepatitis C virus genotype 1b expressed in ET cells after 48 hrs by luciferase reporter gene assay
# Assay type: functional, organism-based, Hepacivirus hominis
# Condition Info: Hepatitis C virus, genotype 1b, ET, 48 h
pIC50: −log10 of the molar value.
Attribute Measured: pIC50

Below: 10 compounds and their reported pIC50.
- Smi: "COc1ncc(-c2ccc3nc(N)n(-c4ccccc4)c(=O)c3c2)cc1NS(C)(=O)=O"
  Experimental Value: 7.70
- Smi: "COc1ncc(-c2ccc3nc(N)n(-c4ccccc4)c(=O)c3c2)cc1NS(=O)(=O)C(C)C"
  Experimental Value: 7.50
- Smi: "COc1ncc(-c2ccc3nc(N)n(-c4ccccc4C(C)C)c(=O)c3c2)cc1S(=O)(=O)Nc1ccc(F)cc1F"
  Experimental Value: 8.20
- Smi: "COc1ncc(-c2ccc3nc(N)n(-c4ccccc4)c(=O)c3c2)cc1S(=O)(=O)Nc1ccc(F)cc1F"
  Experimental Value: 8.30
- Smi: "COc1ncc(-c2ccc3nc(N)n(-c4ccccc4)c(=O)c3c2)cc1NS(=O)(=O)c1ccccc1C"
  Experimental Value: 9.40
- Smi: "COc1ncc(-c2ccc3nc(N)n(-c4ccccc4)c(=O)c3c2)cc1NS(=O)(=O)c1cccc(C)c1"
  Experimental Value: 8.90
- Smi: "COc1ncc(-c2ccc3nc(N)n(C4CCOCC4)c(=O)c3c2)cc1S(=O)(=O)Nc1ccc(F)cc1F"
  Experimental Value: 8.40
- Smi: "COc1ncc(-c2ccc3nc(N)n(-c4ccccc4)c(=O)c3c2)cc1NS(=O)(=O)c1ccccc1"
  Experimental Value: 9.30
- Smi: "Nc1ncc(-c2ccc3nc(N)n(-c4ccccc4)c(=O)c3c2)cc1NS(=O)(=O)c1ccc(F)cc1F"
  Experimental Value: 7.80
- Smi: "COc1ccc(-c2ccc3nc(N)n(-c4ccccc4)c(=O)c3c2)cc1NS(=O)(=O)c1ccc(F)cc1F"
  Experimental Value: 7.50

a. COc1ncc(-c2ccc3nc(N)n(-c4ccc(C(F)(F)F)cc4)c(=O)c3c2)cc1S(=O)(=O)Nc1ccc(F)cc1F
b. COc1ncc(-c2ccc3nc(N)c(-c4ccccc4)nc3c2)cc1NS(=O)(=O)c1ccc(F)cc1F
Query :: So which one has the bigger pIC50 here, a or b ? Label of pick, please.
Result :: a
(a: 8.00, b: 7.80)

A. CCn1c(N)nc2ccc(-c3cnc(OC)c(S(=O)(=O)Nc4ccc(F)cc4F)c3)cc2c1=O
B. COc1ncc(-c2ccc3nc(N)c(-c4ccccc4)cc3c2)cc1NS(=O)(=O)c1ccc(F)cc1F
Query :: So which one has the bigger pIC50 here, A or B ? Label of pick, please.
Result :: B

====

# Test System: Phosphatidylinositol 4,5-bisphosphate 3-kinase catalytic subunit gamma isoform (Homo sapiens, UniProt P48736)
# Sequence (P48736 whole entry, canonical isoform): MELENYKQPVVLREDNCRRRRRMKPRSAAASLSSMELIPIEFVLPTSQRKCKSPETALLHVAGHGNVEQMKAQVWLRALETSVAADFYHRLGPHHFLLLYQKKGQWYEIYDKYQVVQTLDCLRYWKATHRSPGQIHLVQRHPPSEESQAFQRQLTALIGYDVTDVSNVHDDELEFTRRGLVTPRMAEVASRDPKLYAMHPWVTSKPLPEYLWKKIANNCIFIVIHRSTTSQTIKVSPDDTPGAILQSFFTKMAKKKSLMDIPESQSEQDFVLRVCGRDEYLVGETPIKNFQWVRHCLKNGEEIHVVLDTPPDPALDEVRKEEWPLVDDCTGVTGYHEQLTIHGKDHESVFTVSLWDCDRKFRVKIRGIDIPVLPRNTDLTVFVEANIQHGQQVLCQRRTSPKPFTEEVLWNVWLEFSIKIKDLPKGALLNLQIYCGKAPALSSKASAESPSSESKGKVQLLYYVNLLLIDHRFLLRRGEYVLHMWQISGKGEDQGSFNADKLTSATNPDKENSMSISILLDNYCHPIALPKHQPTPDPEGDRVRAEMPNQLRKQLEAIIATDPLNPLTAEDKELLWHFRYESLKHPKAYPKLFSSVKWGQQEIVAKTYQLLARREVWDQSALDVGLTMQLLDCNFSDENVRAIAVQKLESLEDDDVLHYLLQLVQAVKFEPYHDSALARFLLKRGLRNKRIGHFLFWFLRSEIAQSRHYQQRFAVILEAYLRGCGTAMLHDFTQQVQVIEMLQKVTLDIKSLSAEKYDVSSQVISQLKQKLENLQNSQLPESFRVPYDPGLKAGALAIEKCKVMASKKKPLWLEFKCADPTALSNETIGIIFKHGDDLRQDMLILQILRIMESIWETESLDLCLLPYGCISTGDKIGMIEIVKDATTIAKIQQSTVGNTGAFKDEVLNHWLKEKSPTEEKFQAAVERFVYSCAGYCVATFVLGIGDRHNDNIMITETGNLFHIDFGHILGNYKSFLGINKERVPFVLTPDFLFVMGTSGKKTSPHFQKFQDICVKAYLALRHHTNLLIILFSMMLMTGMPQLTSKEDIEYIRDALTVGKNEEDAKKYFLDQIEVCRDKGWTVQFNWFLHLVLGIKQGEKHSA
Attribute Measured: IC50 (µM)

- Smi: "COc1ccc(-c2ccc3nc(N)n(-c4ccccc4)c(=O)c3c2)cc1NS(=O)(=O)c1ccc(F)cc1F"
  Experimental Value: 0.316

a. COc1ncc(-c2ccc3ncnc(N4CCOCC4)c3c2)cc1NS(=O)(=O)c1ccc(F)cc1F
b. CCn1c(N)nc2ccc(-c3cnc(OC)c(S(=O)(=O)Nc4ccc(F)cc4F)c3)cc2c1=O
Query :: So which one has the bigger IC50 here, a or b ? Label of pick, please.
Result :: b

src = ChEMBL document CHEMBL3120088
